biological target: purified recombinant rat FAAH (Rattus norvegicus); construct: made in house; host or cells: E. coli; assay: FAAH enzyme assay, Ki (Dixon plot), rat FAAH; type: biochemical; conditions: purified recombinant rat FAAH expressed in E. coli; 14C-oleamide hydrolysis; pH 9.0; 20-23° C.
Sequence (P97612 whole entry): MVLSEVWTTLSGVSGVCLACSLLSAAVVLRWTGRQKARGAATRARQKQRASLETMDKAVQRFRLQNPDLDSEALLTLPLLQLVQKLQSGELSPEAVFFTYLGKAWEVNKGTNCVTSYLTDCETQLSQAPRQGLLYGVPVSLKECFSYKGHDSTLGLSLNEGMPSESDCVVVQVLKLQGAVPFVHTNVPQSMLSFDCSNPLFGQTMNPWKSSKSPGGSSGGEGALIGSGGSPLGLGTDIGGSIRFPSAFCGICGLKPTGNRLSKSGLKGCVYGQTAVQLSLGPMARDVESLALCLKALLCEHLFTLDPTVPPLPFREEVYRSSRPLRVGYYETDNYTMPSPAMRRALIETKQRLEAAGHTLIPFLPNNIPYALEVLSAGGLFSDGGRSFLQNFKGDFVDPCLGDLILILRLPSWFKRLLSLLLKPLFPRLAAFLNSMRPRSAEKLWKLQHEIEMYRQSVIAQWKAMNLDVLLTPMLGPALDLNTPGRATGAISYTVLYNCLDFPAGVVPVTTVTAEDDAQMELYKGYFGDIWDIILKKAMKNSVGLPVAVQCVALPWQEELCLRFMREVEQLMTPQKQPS
pKi: −log10 of the molar value.
recorded-metric: pKi

Before answering, review these 3 worked examples.
INSERT INTO assay_data (molecule, assayed_target, assay_result) VALUES
  ('COC(=O)c1cccc(-c2cnc(C(=O)CCc3ccc(-c4ccccc4)cc3)o2)n1 [Example 21]', 'purified recombinant rat FAAH (Rattus norvegicus)', 8.92),
  ('O=C(COc1cccc(OCc2ccccc2)c1)c1ncc(-c2ccccn2)o1 [Example 11d]', 'purified recombinant rat FAAH (Rattus norvegicus)', 5.68),
  ('O=C(CCc1ccc(OCc2ccccc2)cc1)c1nc2ncccc2o1 [Example 11k]', 'purified recombinant rat FAAH (Rattus norvegicus)', 9.42);

a: COC(=O)c1ccc(-c2cnc(C(=O)CCc3ccc(-c4ccccc4)cc3)o2)cn1 [Example 32]
b: N#Cc1cccc(-c2cnc(C(=O)CCc3ccc(COc4ccccc4)cc3)o2)n1 [Example 48]
# input Looking at recorded values for pKi, does a or b come in lower? Identify your pick by its label.
# output b

----------
Reported values: IC50 for FAAH (Homo sapiens), one per item.
recorded-metric: IC50 (nM)

Before answering, review these 6 worked examples.
INSERT INTO results (structure_smiles, recorded_metric, quantity_unit, assay_result) VALUES
  ('O=C(O)c1cc(-c2cnc(C(=O)CCc3ccc(-c4ccccc4)cc3)o2)ccn1', 'IC50', 'nM', 7),
  ('N#Cc1cccc(-c2cnc(C(=O)CCc3ccc(-c4ccccc4)cc3)o2)n1', 'IC50', 'nM', 11),
  ('COC(=O)c1ccc(-c2cnc(C(=O)CCc3ccc(-c4ccccc4)cc3)o2)cn1', 'IC50', 'nM', 500),
  ('NC(=O)c1ccc(-c2cnc(C(=O)CCc3ccc(-c4ccccc4)cc3)o2)nc1', 'IC50', 'nM', 0.4),
  ('CCOC(=O)c1cccc(-c2cnc(C(=O)CCc3ccc(-c4ccccc4)cc3)o2)n1', 'IC50', 'nM', 2),
  ('O=C(O)c1ccc(-c2cnc(C(=O)CCc3ccc(-c4ccccc4)cc3)o2)nc1', 'IC50', 'nM', 0.5);

a: O=C(CCc1ccc(-c2ccccc2)cc1)c1ncc(-c2cccc(-c3nnn[nH]3)n2)o1
b: COC(=O)c1cccc(-c2cnc(C(=O)CCc3ccc(COc4ccccc4)cc3)o2)n1
# input Looking at recorded values for IC50, does a or b come in lower? Identify your pick by its label.
# output b

----------
target: purified recombinant rat FAAH (Rattus norvegicus); construct: made in house; host or cells: E. coli; assay: FAAH enzyme assay, Ki (Dixon plot), rat FAAH; assay type: biochemical; details: purified recombinant rat FAAH expressed in E. coli; 14C-oleamide hydrolysis; pH 9.0; 20-23° C.
pKi: −log10 of the molar value.
recorded-metric: pKi

Before answering, review these 5 worked examples.
INSERT INTO assay_data (molecule, assay_result) VALUES
  ('O=C(O)c1cccc(-c2cnc(C(=O)CCc3ccc(-c4ccccc4)cc3)o2)n1', 7.66),
  ('O=C(O)c1cccc(-c2cnc(C(=O)CCc3ccc(-c4ccc(CN5CCOCC5)cc4)cc3)o2)n1', 6.82),
  ('O=C(CCc1ccc(OCc2ccccc2)cc1)c1ncc(-c2ccccn2)o1 [Example 11a]', 8.89),
  ('O=C(CCc1ccc(Sc2ccccc2)cc1)c1ncc(-c2ccccn2)o1 [Example 11i]', 8.66),
  ('COC(=O)c1cccc(-c2cnc(C(=O)CCc3ccc(-c4ccc(CN5CCSCC5)cc4)cc3)o2)n1', 8.30);

P: O=C(O)c1cccc(-c2cnc(C(=O)CCc3ccc(COc4ccccc4)cc3)o2)n1
Q: NC(=O)c1cccc(-c2cnc(C(=O)CCc3ccc(-c4ccccc4)cc3)o2)n1
# input Looking at recorded values for pKi, does P or Q come in lower? Identify your pick by its label.
# output P
(P: 8.21, Q: 8.92)
